Data origin, for the record: patent US9334299B2

# Tested on: HCT116 (colon cancer) cells
# experiment_notes: CellTiter-Glo cell viability assay, HCT116 cells
# Format: cell-based
# measurement_parameters: Homo sapiens, HCT-116; 0.1 μM, 48 hours; read-out: HCT116 cell viability after 48 hours of treatment
property: viability at 0.1 µM (%)
Report as a plain number; the unit % is understood.

Record excerpt, results attached:
CC[C@@]1(OP(=O)(O)OC[C@H]2O[C@@H](n3ccc(N)nc3=O)C[C@@H]2O)C(=O)OCc2c1cc1n(c2=O)Cc2cc3ccccc3nc2-1
87
CC[C@@]1(OP(=O)(O)OC[C@H]2O[C@@H](n3cc(C)c(=O)[nH]c3=O)C[C@@H]2O)C(=O)OCc2c1cc1n(c2=O)Cc2cc3ccccc3nc2-1
90
CC[C@@]1(OP(=O)(O)OC[C@H]2O[C@@H](n3cnc4c(N)ncnc43)C[C@@H]2O)C(=O)OCc2c1cc1n(c2=O)Cc2cc3ccccc3nc2-1
95

Now look at this entry.
What value of measured viability at 0.1 µM is listed for CC[C@@]1(O)C(=O)OCc2c1cc1n(c2=O)Cc2cc3ccccc3nc2-1 ?
96
